These measurements were taken from patent US10118947B2.

# target.desc: human plasma Kallikrein (Homo sapiens)
# Construct: purchased Stratech, UK
# Sequence (P03952 20-638): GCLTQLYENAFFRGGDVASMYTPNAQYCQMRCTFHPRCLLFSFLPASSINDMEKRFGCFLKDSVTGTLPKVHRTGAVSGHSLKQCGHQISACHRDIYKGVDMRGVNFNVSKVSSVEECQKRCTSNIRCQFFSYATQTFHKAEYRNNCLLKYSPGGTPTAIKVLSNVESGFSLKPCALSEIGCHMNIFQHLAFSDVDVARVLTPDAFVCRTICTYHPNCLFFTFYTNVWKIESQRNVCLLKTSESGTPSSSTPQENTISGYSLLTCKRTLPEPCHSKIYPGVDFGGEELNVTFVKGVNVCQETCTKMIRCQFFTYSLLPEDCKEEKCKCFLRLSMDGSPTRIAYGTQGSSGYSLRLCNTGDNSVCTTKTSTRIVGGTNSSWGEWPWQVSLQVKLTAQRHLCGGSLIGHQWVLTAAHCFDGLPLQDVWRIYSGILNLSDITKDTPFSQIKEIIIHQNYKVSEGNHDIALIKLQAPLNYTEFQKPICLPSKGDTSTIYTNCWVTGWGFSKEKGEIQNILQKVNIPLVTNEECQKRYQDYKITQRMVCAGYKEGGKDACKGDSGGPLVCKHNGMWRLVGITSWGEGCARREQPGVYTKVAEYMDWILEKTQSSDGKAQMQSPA
# assay.explanation: Functional enzyme inhibition assay with fluorogenic substrate Z-PheArg-AMC, human plasma Kallikrein
# Type: biochemical
# details: Table 3b, D-amino acid scan in Loop2; read-out: Ki
Numbered stars: 1 amine (or outer) side, 2 acyl side, 3 side chain; on linkers, the order of the positions; unused ones are H or OH. Bridge positions count the residues as written; N and C are the ends. Square brackets hold non-standard residues; d marks the D form. Peptide text beside a SMILES is read from it. TBMB = c1c(C[*:1])cc(C[*:3])cc1C[*:2]
Answer each item with its documented pKi.
For clarity, pKi is expressed as the negative log10 of concentration in mol/L.

The reported value for CC(=O)N[C@H]1CSCc2cc3cc(c2)CSC[C@H](NC(=O)[C@H](CCCNC(=N)N)NC(=O)[C@H](Cc2ccc(O)cc2)NC(=O)[C@@H]2CCCN2C(=O)[C@H](Cc2ccccc2)NC(=O)[C@H](CO)NC1=O)C(=O)N[C@@H](CC(C)C)C(=O)N[C@@H](Cc1c[nH]cn1)C(=O)N[C@@H](CCC(N)=O)C(=O)N[C@@H](CC(=O)O)C(=O)N[C@H](CC(C)C)C(=O)N[C@H](C(N)=O)CSC3 [Ac-(06-34-18) Phe2 Tyr4 D-Leu10] (Ac-CSFPYRCLHQD[dL]C-NH2; linker 1-7-13 via TBMB) in terms of pKi is 6.38

The reported value for CC(=O)N[C@H]1CSCc2cc3cc(c2)CSC[C@H](NC(=O)[C@H](CCCNC(=N)N)NC(=O)[C@H](Cc2ccc(O)cc2)NC(=O)[C@@H]2CCCN2C(=O)[C@H](Cc2ccccc2)NC(=O)[C@H](CO)NC1=O)C(=O)N[C@@H](CC(C)C)C(=O)N[C@@H](Cc1c[nH]cn1)C(=O)N[C@@H](CCC(N)=O)C(=O)N[C@H](CC(=O)O)C(=O)N[C@@H](CC(C)C)C(=O)N[C@H](C(N)=O)CSC3 [Ac-(06-34-18) Phe2 Tyr4 D-Asp9] (Ac-CSFPYRCLHQ[dD]LC-NH2; linker 1-7-13 via TBMB) in terms of pKi is 8.41

* * *

Answer each item with its documented Ki.
# target.desc: human plasma Kallikrein (Homo sapiens)
# Construct: purchased Stratech, UK
# assay.explanation: Functional enzyme inhibition assay with fluorogenic substrate Z-PheArg-AMC, human plasma Kallikrein
# Assay type: biochemical
# details: Table 26b, loop 1 and loop 2 modified derivatives; read-out: Ki (nM) (human kallikrein)
# Experimental: Functional enzyme assays were conducted in 10 mM Tris HCl, 150 mM NaCl, 10 mM MgCl2, 1 mM CaCl2) and 1 mg/mL BSA (all Sigma UK) pH7.4 at 25° C. in solid black 96 well plates. […] Release of AMC was measured using a Pherastar FS (BMG Labtech), excitation 360 nm, emission 460 nm. The rate of the linear phase of the reaction, typically 5 to 45 minutes, was calculated in MARS data analysis software (BMG labtech). […]
Numbered stars: 1 amine (or outer) side, 2 acyl side, 3 side chain; on linkers, the order of the positions; unused ones are H or OH. Bridge positions count the residues as written; N and C are the ends. Square brackets hold non-standard residues; d marks the D form. Peptide text beside a SMILES is read from it. TBMB = c1c(C[*:1])cc(C[*:3])cc1C[*:2]; hArg = N=C(N)NCCCC[C@H](N)C(=O)O; Phg = N[C@H](C(=O)O)c1ccccc1; Aze = O=C(O)[C@@H]1CCN1
Please respond with the number in nM and leave the unit unwritten.

The reported value for CC(=O)N[C@H]1CSCc2cc3cc(c2)CSC[C@H](NC(=O)[C@H](CCCCNC(=N)N)NC(=O)[C@H](Cc2ccc(O)cc2)NC(=O)[C@@H]2CCN2C(=O)[C@H](Cc2ccccc2)NC(=O)[C@H](CO)NC1=O)C(=O)N[C@@H](CC(C)C)C(=O)N[C@@H](Cc1c[nH]cn1)C(=O)N[C@@H](CCC(=O)O)C(=O)N[C@@H](CC(=O)O)C(=O)N[C@@H](CC(C)C)C(=O)N[C@H](C(N)=O)CSC3 [Ac-(06-34-18) Phe2 Aze3 Tyr4 HArg5 Glu8] (Ac-CSF[Aze]Y[hArg]CLHEDLC-NH2; linker 1-7-13 via TBMB) in terms of Ki is 1.65

The reported value for CC(=O)N[C@H]1CSCc2cc3cc(c2)CSC[C@H](NC(=O)[C@H](CCCCNC(=N)N)NC(=O)[C@H](C)NC(=O)[C@@H]2CCN2C(=O)[C@H](Cc2c[nH]c4ccccc24)NC(=O)[C@H](CO)NC1=O)C(=O)N[C@@H](c1ccccc1)C(=O)N[C@@H](Cc1c[nH]cn1)C(=O)N[C@@H](CCC(N)=O)C(=O)N[C@@H](CC(=O)O)C(=O)N[C@@H](CC(C)C)C(=O)N[C@H](C(N)=O)CSC3 [Ac-(06-34-18) Aze3 HArg5 Phg6] (Ac-CSW[Aze]A[hArg]C[Phg]HQDLC-NH2; linker 1-7-13 via TBMB) in terms of Ki is 0.52
